Molecular target: NRAS G12C (Homo sapiens, UniProt P01111+P62937, G12C)
Sequence (P01111 whole entry G12C, one chain of several): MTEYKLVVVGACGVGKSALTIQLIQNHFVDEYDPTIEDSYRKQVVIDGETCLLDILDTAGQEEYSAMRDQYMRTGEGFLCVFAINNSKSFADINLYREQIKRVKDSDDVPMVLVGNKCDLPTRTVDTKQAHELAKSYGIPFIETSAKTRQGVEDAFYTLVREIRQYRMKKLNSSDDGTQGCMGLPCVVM
Test: Ras-Raf disruption / FRET / MOA assay (BRAF RBD)
Assay type: biochemical
Details: NRAS G12C; read-out: NRAS G12C FRET data IC50
pIC50: −log10 of the molar value.
Measure: pIC50

Molecule	Result
CCn1c(-c2cccnc2[C@H](C)OC)c2c3cc(ccc31)-c1cc(O)cc(c1)C[C@H](NC(=O)[C@H](C(C)C)N(C)C(=O)c1ccc([C@H]3CN3)cc1)C(=O)N1CCC[C@H](N1)C(=O)OCC(C)(C)C2	6.00 to 7.00
CCn1c(-c2cccnc2[C@H](C)OC)c2c3cc(ccc31)-c1csc(n1)C[C@H](NC(=O)[C@H](C(C)C)N(C)C(=O)N1CC(CN(C)C(=O)[C@H]3CN3)C1)C(=O)N1CCC[C@H](N1)C(=O)OCC(C)(C)C2 (atropisomer, axis not shown)	7.00 to 8.00
CCn1c(-c2cccnc2[C@H](C)OC)c2c3cc(ccc31)-c1csc(n1)C[C@H](NC(=O)[C@H](C(C)C)N(C)C(=O)N1CCCN(C(=O)[C@@H]3CN3)CC1)C(=O)N1CCC[C@H](N1)C(=O)OCC(C)(C)C2 (atropisomer, axis not shown)	7.00 to 8.00
CCn1c(-c2cccnc2[C@H](C)OC)c2c3cc(ccc31)-c1cccc(c1)C[C@H](NC(=O)[C@H](C(C)C)N(C)C(=O)CCN=C=NCc1ccccc1OC)C(=O)N1CCC[C@H](N1)C(=O)OCC(C)(C)C2	7.00 to 8.00

###

Reported IC50 values for the following compounds.
Target: KRAS G12V (Homo sapiens, UniProt P01116+P62937, G12V)
Sequence (P01116 1-169 isoform P01116-2 G12V limits assumed, one chain of several): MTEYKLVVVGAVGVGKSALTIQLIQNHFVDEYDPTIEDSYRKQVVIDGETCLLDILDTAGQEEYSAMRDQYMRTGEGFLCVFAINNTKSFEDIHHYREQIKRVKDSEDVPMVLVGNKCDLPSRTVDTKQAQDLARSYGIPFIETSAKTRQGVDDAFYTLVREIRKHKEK
Assay: Disruption of BRAF RBD interaction with Ras (FRET / MOA assay, with Cyclophilin A)
Type: biochemical
Details: KRAS G12V; read-out: KRAS G12V FRET data IC50

Given smiles	IC50
C=CC(=O)N1CC[C@H](C(=O)N(C)[C@H](C(=O)N[C@H]2Cc3cc(O)cc(c3)-c3ccc4c(c3)c(c(-c3ccccc3[C@H](C)OC)n4CC)CC(C)(C)COC(=O)[C@@H]3CCCN(N3)C2=O)C(C)C)C1	100 to 1000 nM
C=CC(=O)N1CC[C@H](C(=O)N(C)[C@H](C(=O)N[C@H]2Cc3cc(O)cc(c3)-c3ccc4c(c3)c(c(-c3cnn(C)c3)n4CC)CC(C)(C)COC(=O)[C@@H]3CCCN(N3)C2=O)C(C)C)C1	1000 to 10000 nM
CCn1c(-c2cccnc2[C@H](C)OC)c2c3cc(ccc31)-c1csc(n1)C[C@H](NC(=O)[C@H](C(C)C)N(C)C(=O)N1CCOC3(CN(C)C3)C1)C(=O)N1CCC[C@H](N1)C(=O)OCC(C)(C)C2	100 to 1000 nM
CCn1c(-c2cccnc2[C@H](C)OC)c2c3cc(ccc31)-c1cc(O)cc(c1)C[C@H](NC(=O)[C@H](C(C)C)N(C)C(=O)[C@H]1CCN(C(=O)[C@@]3(C)CCCN3)C1)C(=O)N1CCC[C@H](N1)C(=O)OCC(C)(C)C2	10 to 100 nM

###

Target: KRAS G13D (Homo sapiens, UniProt P01116+P62937, G13D)
Sequence (P01116 1-169 isoform P01116-2 G13D limits assumed, one chain of several): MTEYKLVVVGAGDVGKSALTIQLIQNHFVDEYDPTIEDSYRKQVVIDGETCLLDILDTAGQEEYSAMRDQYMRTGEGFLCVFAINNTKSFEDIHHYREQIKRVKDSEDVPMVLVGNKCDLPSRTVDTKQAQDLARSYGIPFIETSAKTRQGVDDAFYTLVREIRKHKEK
Assay: Disruption of BRAF RBD interaction with Ras (FRET / MOA assay, with Cyclophilin A)
Type: biochemical
Settings: KRAS G13D; read-out: KRAS G13D FRET data IC50
pIC50: −log10 of the molar value.
The entries below are paired with their reported pIC50.

Compound	Target or system	pIC50
CCn1c(-c2cccnc2COC)c2c3cc(ccc31)-c1cc(O)cc(c1)C[C@H](NC(=O)[C@H](C(C)C)N(C)C(=O)[C@H]1CCNC1)C(=O)N1CCC[C@H](N1)C(=O)OCC(C)(C)C2	KRAS G13D (Homo sapiens, UniProt P01116+P62937, G13D)	6.00 to 7.00
CCn1c(-c2cccnc2[C@H](C)OC)c2c3cc(ccc31)-c1cc(O)cc(c1)C[C@H](NC(=O)[C@H](C(C)C)N(C)C(=O)C1CC13CC3)C(=O)N1CCC[C@H](N1)C(=O)OCC(C)(C)C2 (some centres unmarked)	KRAS G13D (Homo sapiens, UniProt P01116+P62937, G13D)	6.00 to 7.00
CCn1c(-c2cccnc2[C@H](C)OC)c2c3cc(ccc31)-c1csc(n1)C[C@H](NC(=O)[C@H](C(C)C)N(C)C(=O)N(C)C)C(=O)N1CCC[C@H](N1)C(=O)OCC(C)(C)C2 (racemic)	KRAS G13D (Homo sapiens, UniProt P01116+P62937, G13D)	6.00 to 7.00
CCn1c(-c2cccnc2[C@H](C)OC)c2c3cc(ccc31)-c1csc(n1)C[C@H](NC(=O)[C@H](C(C)C)N(C)C(=O)N1CCC[C@@H](CN(C)C)C1)C(=O)N1CCC[C@H](N1)C(=O)OCC(C)(C)C2	KRAS G13D (Homo sapiens, UniProt P01116+P62937, G13D)	6.00 to 7.00
CCn1c(-c2cccnc2[C@H](C)OC)c2c3cc(ccc31)-c1cc(O)cc(c1)C[C@H](NC(=O)[C@H](C(C)C)N(C)C(=O)C1CNC1)C(=O)N1CCC[C@H](N1)C(=O)OCC(C)(C)C2	KRAS G13D (Homo sapiens, UniProt P01116+P62937, G13D)	7.00 to 8.00

###

System: NCI-H358 (K-Ras G12C)
Test: CellTiter-Glo cell viability assay, 5-day treatment
Assay type: cell-based
Details: Homo sapiens, NCI-H358, 120 h, 5-day treatment; read-out: H358 Cell Viability assay data (K-Ras G12C, IC50)

Molecule	IC50
CCn1c(-c2cccnc2[C@H](C)OC)c2c3cc(ccc31)-c1csc(n1)C[C@H](NC(=O)[C@H](C(C)C)N(C)C(=O)N(C)C1CC1)C(=O)N1CCC[C@H](N1)C(=O)OCC(C)(C)C2	10 to 100 nM
CCn1c(-c2cnccc2COC)c2c3cc(ccc31)-c1cc(O)cc(c1)C[C@H](NC(=O)[C@H](C(C)C)N(C)C(=O)C1CCN(C)CC1)C(=O)N1CCC[C@H](N1)C(=O)OCC(C)(C)C2	> 10000 nM
CCn1c(-c2cccnc2[C@H](C)OC)c2c3cc(ccc31)-c1cc(O)cc(c1)C[C@H](NC(=O)[C@H](C(C)C)N(C)C(=O)Cc1cc[nH]n1)C(=O)N1CCC[C@H](N1)C(=O)OCC(C)(C)C2	100 to 1000 nM
CCn1c(-c2cccnc2[C@H](C)OC)c2c3cc(ccc31)-c1csc(n1)C[C@H](NC(=O)[C@H](C(C)C)N(C)C(=O)N1CCC[C@@H](N(C)C)CC1)C(=O)N1CCC[C@H](N1)C(=O)OCC(C)(C)C2	10 to 100 nM
CCn1c(-c2cccnc2[C@H](C)OC)c2c3cc(ccc31)-c1cc(O)cc(c1)C[C@H](NC(=O)[C@H](C(C)C)N(C)C(=O)[C@H]1CCN(C(=O)C(C)(C)N(C)C)C1)C(=O)N1CCC[C@H](N1)C(=O)OCC(C)(C)C2 (atropisomer, axis not shown)	10 to 100 nM

###

Molecular target: NRAS WT (Homo sapiens, UniProt P01111+P62937)
Sequence (P01111 whole entry): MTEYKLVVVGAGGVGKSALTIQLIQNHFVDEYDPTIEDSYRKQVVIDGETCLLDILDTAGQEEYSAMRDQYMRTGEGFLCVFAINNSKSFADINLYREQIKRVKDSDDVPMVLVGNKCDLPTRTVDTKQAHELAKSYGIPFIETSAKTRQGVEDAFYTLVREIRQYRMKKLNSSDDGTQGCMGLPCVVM
Sequence (P62937 whole entry): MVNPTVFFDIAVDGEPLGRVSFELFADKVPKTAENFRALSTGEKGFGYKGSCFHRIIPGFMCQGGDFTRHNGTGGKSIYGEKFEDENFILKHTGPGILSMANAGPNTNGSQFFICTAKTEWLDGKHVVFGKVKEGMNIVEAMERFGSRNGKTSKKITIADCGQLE
Test: Disruption of BRAF RBD interaction with Ras (FRET / MOA assay, with Cyclophilin A)
Type: biochemical
Settings: NRAS WT; read-out: NRAS WT FRET data IC50
pIC50: −log10 of the molar value.
Collected pIC50 values appear next to each entry.

Compound	pIC50
CCn1c(-c2cccnc2[C@H](C)OC)c2c3cc(ccc31)-c1csc(n1)C[C@H](NC(=O)[C@H](C(C)C)N(C)C(=O)N1CC(S(=O)(=O)NC)C1)C(=O)N1CCC[C@H](N1)C(=O)OCC(C)(C)C2 (atropisomer, axis not shown)	6.00 to 7.00
CCn1c(-c2cccnc2[C@H](C)OC)c2c3cc(ccc31)-c1csc(n1)C[C@H](NC(=O)[C@H](C(C)C)N1CCN(C)C1=O)C(=O)N1CCC[C@H](N1)C(=O)OCC(C)(C)C2	5.00 to 6.00

###

Recorded measurements of IC50, one per entry
Target: KRAS WT (Homo sapiens, UniProt P01116+P62937)
Sequence (P01116 1-169 isoform P01116-2 limits assumed): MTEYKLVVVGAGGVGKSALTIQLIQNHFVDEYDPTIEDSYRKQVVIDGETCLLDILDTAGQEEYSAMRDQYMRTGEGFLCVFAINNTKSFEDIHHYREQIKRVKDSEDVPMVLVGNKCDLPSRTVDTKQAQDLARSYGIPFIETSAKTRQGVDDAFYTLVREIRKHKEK
Sequence (P62937 whole entry): as the sequence (P62937 whole entry) above
Experiment: Disruption of BRAF RBD interaction with Ras (FRET / MOA assay, with Cyclophilin A)
Assay type: biochemical
Details: KRAS WT; read-out: KRAS WT FRET data IC50

Molecule	IC50
CCn1c(-c2cnccc2COC)c2c3cc(ccc31)-c1cc(O)cc(c1)C[C@H](NC(=O)[C@H](C(C)C)N(C)C(=O)O[C@H]1CCOC1)C(=O)N1CCC[C@H](N1)C(=O)OCC(C)(C)C2	100 to 1000 nM
CCn1c(-c2cccnc2[C@H](C)OC)c2c3cc(ccc31)-c1csc(n1)C[C@H](NC(=O)[C@H](C(C)C)N(C)C(=O)N1CC(C3CN(C)C3)C1)C(=O)N1CCC[C@H](N1)C(=O)OCC(C)(C)C2 (atropisomer, axis not shown)	100 to 1000 nM
C=CC(=O)N1CC[C@H](C(=O)N(C)[C@H](C(=O)N[C@H]2Cc3cc(O)cc(c3)-c3ccc4c(c3)c(c(-c3ccccc3[C@H](C)OC)n4CC)CC(C)(C)COC(=O)[C@@H]3CCCN(N3)C2=O)C(C)C)C1	100 to 1000 nM
C=CC(=O)N1CCOC2(CCN(C(=O)N(C)[C@H](C(=O)N[C@H]3CN4CCC=C(C4)c4ccc5c(c4)c(c(-c4cccnc4[C@H](C)OC)n5CC)CC(C)(C)COC(=O)[C@@H]4CCCN(N4)C3=O)C(C)C)CC2)C1	1000 to 10000 nM
CCn1c(-c2cccnc2[C@H](C)OC)c2c3cc(ccc31)-c1cc(O)cc(c1)C[C@H](NC(=O)[C@H](C(C)C)N(C)C(=O)[C@@H]1CNC[C@@H]1C)C(=O)N1CCC[C@H](N1)C(=O)OCC(C)(C)C2	10 to 100 nM
CCn1c(-c2cccnc2[C@H](C)OC)c2c3cc(ccc31)-c1csc(n1)C[C@H](NC(=O)[C@H](C(C)C)N1CCN(C)C1=O)C(=O)N1CCC[C@H](N1)C(=O)OCC(C)(C)C2	1000 to 10000 nM
C=CC(=O)N1CCC(C(=O)N(C)C(C(=O)NC2Cc3nc(cs3)-c3ccc4c(c3)c(c(-c3cccnc3C(C)OC)n4CC)CC(C)(C)COC(=O)C3CCCN(N3)C2=O)C(C)C)C1 (stereo not drawn)	> 10000 nM
CCn1c(-c2cnccc2COC)c2c3cc(ccc31)-c1cc(O)cc(c1)C[C@H](NC(=O)[C@H](C(C)C)N(C)C(=O)c1ncco1)C(=O)N1CCC[C@H](N1)C(=O)OCC(C)(C)C2	100 to 1000 nM
CCn1c(-c2cccnc2[C@H](C)OC)c2c3cc(ccc31)-c1csc(n1)C[C@H](NC(=O)[C@H](C(C)C)N(C)C(=O)N1CC[C@@H]1CN(C)C)C(=O)N1CCC[C@H](N1)C(=O)OCC(C)(C)C2	100 to 1000 nM
